These records show IC50 for human albumin (Homo sapiens, UniProt P02768).
Phrase the answer as number then unit, nothing more needed.

Worked examples, 4 compounds total:
COc1ccc(CN2CCN(C(=O)C(C)c3ccc4c(c3)[nH]c3ccc(Cl)cc34)CC2)c(OC)c1OC (centres unmarked) [3e]: 225 µM
COc1ccc(CN2CCN(C(=O)C(C)c3ccc(CC(C)C)cc3)CC2)c(OC)c1OC (centres unmarked) [3a]: 244 µM
COc1ccc(CN2CCN(C(=O)C(C)c3cccc(C(=O)c4ccccc4)c3)CC2)c(OC)c1OC (centres unmarked) [3b]: 234 µM
COc1ccc2cc(C(C)C(=O)N3CCN(Cc4ccc(OC)c(OC)c4OC)CC3)ccc2c1 (centres unmarked) [3c]: 227 µM

Next:
### Prompt I'm curious: which IC50 was measured for COc1ccc(CN2CCN(C(=O)C(C)c3ccc(-c4ccccc4)c(F)c3)CC2)c(OC)c1OC (centres unmarked) [3d] tested on human albumin (Homo sapiens, UniProt P02768)?
### Response 235 µM
